src = paper PMC4956519

Format: in vivo, mice
CONDITION_INFO: male, C57BL/6J, mouse, plasma, iv, 10 mg/kg
Where a SMILES comes first, the peptide text is derived from it.
ASSAY_READOUT: clearance (mL/min/kg)

COMPOUND: O=C1N[C@H](Cc2c[nH]c3ccccc23)C(=O)N[C@@H](Cc2ccccc2)C(=O)N2CCC[C@@H]2C(=O)N[C@H]1Cc1ccccc1 [[D-Trp]CJ-15,208, cyclo[Phe-D-Pro-Phe-D-Trp]] (HELM PEPTIDE1{F.[dP].F.[dW]}$PEPTIDE1,PEPTIDE1,1:R1-4:R2$$$V2.0)
ASSAY_READOUT: clearance
ENDPOINT_VALUE: 494

---

Type: in vivo, mice
CONDITION_INFO: male, C57BL/6J, mouse, plasma, iv, 10 mg/kg
Where a SMILES comes first, the peptide text is derived from it.
ASSAY_READOUT: Vd (L/kg)

MOLECULE: O=C1N[C@H](Cc2c[nH]c3ccccc23)C(=O)N[C@@H](Cc2ccccc2)C(=O)N2CCC[C@@H]2C(=O)N[C@H]1Cc1ccccc1 [[D-Trp]CJ-15,208, cyclo[Phe-D-Pro-Phe-D-Trp]] (HELM PEPTIDE1{F.[dP].F.[dW]}$PEPTIDE1,PEPTIDE1,1:R1-4:R2$$$V2.0)
ASSAY_READOUT: Vd
ENDPOINT_VALUE: 10.1

---

Assay type: in vivo, mice
CONDITION_INFO: male, C57BL/6J, mouse, plasma, iv, 10 mg/kg
Where a SMILES comes first, the peptide text is derived from it.

MOLECULE: O=C1N[C@H](Cc2c[nH]c3ccccc23)C(=O)N[C@@H](Cc2ccccc2)C(=O)N2CCC[C@@H]2C(=O)N[C@H]1Cc1ccccc1 [[D-Trp]CJ-15,208, cyclo[Phe-D-Pro-Phe-D-Trp]] (HELM PEPTIDE1{F.[dP].F.[dW]}$PEPTIDE1,PEPTIDE1,1:R1-4:R2$$$V2.0)
half-life (min): 14.2

---

Type: in vivo, mice
CONDITION_INFO: male, C57BL/6J, mouse, plasma, iv, 10 mg/kg
Where a SMILES comes first, the peptide text is derived from it.

COMPOUND: O=C1N[C@H](Cc2c[nH]c3ccccc23)C(=O)N[C@@H](Cc2ccccc2)C(=O)N2CCC[C@@H]2C(=O)N[C@H]1Cc1ccccc1 [[D-Trp]CJ-15,208, cyclo[Phe-D-Pro-Phe-D-Trp]] (HELM PEPTIDE1{F.[dP].F.[dW]}$PEPTIDE1,PEPTIDE1,1:R1-4:R2$$$V2.0)
AUC(0-inf): 337 ng·h/mL

---

Assay type: in vivo, mice
CONDITION_INFO: male, C57BL/6J, mouse, plasma, iv, 10 mg/kg
Where a SMILES comes first, the peptide text is derived from it.

COMPOUND: O=C1N[C@H](Cc2c[nH]c3ccccc23)C(=O)N[C@@H](Cc2ccccc2)C(=O)N2CCC[C@@H]2C(=O)N[C@H]1Cc1ccccc1 [[D-Trp]CJ-15,208, cyclo[Phe-D-Pro-Phe-D-Trp]] (HELM PEPTIDE1{F.[dP].F.[dW]}$PEPTIDE1,PEPTIDE1,1:R1-4:R2$$$V2.0)
VALUE_UNITS: ng/mL
Cmax: 1020

---

Format: in vivo, mice
CONDITION_INFO: male, C57BL/6J, mouse, plasma, iv, 10 mg/kg
Where a SMILES comes first, the peptide text is derived from it.
ASSAY_READOUT: C0 (ng/mL)

COMPOUND: O=C1N[C@H](Cc2c[nH]c3ccccc23)C(=O)N[C@@H](Cc2ccccc2)C(=O)N2CCC[C@@H]2C(=O)N[C@H]1Cc1ccccc1 [[D-Trp]CJ-15,208, cyclo[Phe-D-Pro-Phe-D-Trp]] (HELM PEPTIDE1{F.[dP].F.[dW]}$PEPTIDE1,PEPTIDE1,1:R1-4:R2$$$V2.0)
ASSAY_READOUT: C0
ENDPOINT_VALUE: 1130
